# Test system: T-47D breast
# experiment: NCI tumour cell line growth inhibition, 48 h
observation_type: TGI

C=C[C@]1(O[Si](C)(C)C)C[C@@]2(C(=O)OCC)C(O)C(=O)N3CCc4cc(OC)c(OC)cc4[C@]312 (stereo partly specified); > 100 µM
C/C(N)=N/OCc1nc(C)no1; > 100 µM
N#C/C(=C\c1cc2ccc(N3CCC3)cc2oc1=O)C(=O)N(CC(=O)O)CC(=O)O; > 100 µM
CC(C)CCC[C@@H](C)[C@H]1CC[C@H]2C3=C[C@H](OS(=O)(=O)O)[C@@]4(O)C[C@@H](O)CC[C@]4(C)[C@@]3(O)CC[C@]12C; > 100 µM
CN1CCCC1c1cccnc1.O=C(O)c1ccccc1O.O=C([O-])c1ccccc1[OH2+].O=C([O-])c1ccccc1[OH2+].[Mn+2] (stereo unspecified); > 100 µM
O=c1[nH]c(=O)n(C2C(CO)OC(CO)C2O)cc1F (stereo unspecified); > 100 µM
Cc1cccc(CNc2ncnc3[nH]ncc23)c1; > 100 µM
Nc1nc2ccccc2c2c1S(=O)(=O)c1ccc(Cl)cc1C2=O; > 50 µM
COc1cc(C(=O)/C=C/c2c(C(F)(F)F)nc3ccccn23)cc(OC)c1OC; 15 µM
CC(=O)O[C@@H]1[C@H]2[C@@H](OC(=O)c3ccccc3)[C@@H](C)C[C@]2(O)[C@H](OC(C)=O)[C@@]2(C)[C@@H]3C[C@@](C)(OC(C)=O)C[C@@H](OC(C)=O)[C@@]3(OC(C)=O)C[C@@]12C; > 10 µM

What value of TGI has been recorded for this entry: COc1ccc(-c2[nH]c3ccccc3c2/C=C(\C#N)S(=O)(=O)c2ccccc2)cc1
6.15 µM

What value of TGI has been recorded for this entry: Cc1ccc(/N=N/C(=NNC(=O)c2ccc(C)cc2)c2ccc(N(C)C)cc2)cc1
> 100 µM

What value of TGI has been recorded for this entry: CC(=O)N(CC(=O)C(=O)NNc1ccoc1)c1ccc(Cl)cc1
> 100 µM

What value of TGI has been recorded for this entry: COCCOCCOCCOCCOC(=O)OC[n+]1ccc(NC(=NCCCCCCOc2ccc(Cl)cc2)NC#N)cc1
17.5 µM

* * *

Each entry below carries its reported TGI.
# Tested on: NCI-H522 lung
# experiment: NCI tumour cell line growth inhibition, 48 h

O=c1ccn(/C=C/C(O)C(O)CO)c(=O)[nH]1 (stereo unspecified); > 100 µM

What value of TGI has been recorded for this entry: Cc1ccc(/C=C2\Cc3cc(C)c(C)cc3C2=O)c(C(=O)O)c1
> 100 µM

What value of TGI has been recorded for this entry: Nc1nc2ncn(CC(O)CO)c2c(=O)[nH]1 (stereo unspecified)
> 100 µM

What value of TGI has been recorded for this entry: NC(CCCCNCc1ccccc1O)C(=O)O (stereo unspecified)
> 100 µM

* * *

# System: OVCAR-5 ovarian
# experiment: NCI tumour cell line growth inhibition, 48 h
observation_type: TGI

Would you please look over these solved cases?
O=C(O)C12CC3CC(C1)C2C=C3P(=O)(O)O (stereo not drawn); > 100 µM
COc1ccc(COc2cc3oc(=O)c4cc(C(C)O)ccc4c3cc2OC)cc1 (stereo not drawn); > 100 µM

# next compound below
What value of TGI has been recorded for this entry: COc1ccc(S(=O)(=O)N2CCNCC2)cc1OC
> 100 µM
